Tested on: panel of cancer cell lines
Test method notes: Cell viability (CellTiter-Glo) dose-response across cancer cell line panel;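 note: after 72 h compound incubation with CellTiter-Glo ATP readout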
Type: cell-based, human
Condition set: Homo sapiens, SK-MEL-30, SK-MEL-30
Quantity kind: EC50 (nM)

[1] COCc1ccccc1NCc1ccc([C@H]2[C@@H](O)CCCc3cncn32)c(-c2ccccc2Cl)c1
[2] NS(=O)(=O)OC[C@@H]1C[C@@H](n2ccc3c(N[C@H]4CCc5ccccc54)ncnc32)C[C@@H]1O
Query :: Would you mind telling me which has the lower recorded EC50 between 1 and 2 ? Answer = label.
Result :: 2

====

Test system: panel of cancer cell lines
Test method notes: Cell viability (CellTiter-Glo) dose-response across cancer cell line panel;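 note: after 72 h compound incubation with CellTiter-Glo ATP readout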
Type: cell-based, human
Condition set: Homo sapiens, CMK-86, CMK-86
Quantity kind: EC50 (nM)

[a] NS(=O)(=O)OC[C@@H]1C[C@@H](n2ccc3c(N[C@H]4CCc5ccccc54)ncnc32)C[C@@H]1O [MLN4924]
[b] COCc1ccccc1NCc1ccc([C@H]2[C@@H](O)CCCc3cncn32)c(-c2ccccc2Cl)c1 [CSN5i-2]
Query :: Would you mind telling me which has the lower recorded EC50 between a and b ? Answer = label.
Result :: a
(a: 230 nM, b: 1720 nM)

====

Test system: panel of cancer cell lines
Test method notes: Cell viability (CellTiter-Glo) dose-response across cancer cell line panel;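 note: after 72 h compound incubation with CellTiter-Glo ATP readout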
Type: cell-based, human
Condition set: Homo sapiens, SU-DHL-8, SU-DHL-8
pEC50: −log10 of the molar value.
Quantity kind: pEC50

[1] COCc1ccccc1NCc1ccc([C@H]2[C@@H](O)CCCc3cncn32)c(-c2ccccc2Cl)c1
[2] NS(=O)(=O)OC[C@@H]1C[C@@H](n2ccc3c(N[C@H]4CCc5ccccc54)ncnc32)C[C@@H]1O
Query :: Would you mind telling me which has the lower recorded pEC50 between 1 and 2 ? Answer = label.
Result :: 1
(1: 6.33, 2: 6.81)

====

Tested on: panel of cancer cell lines
Test method notes: Cell viability (CellTiter-Glo) dose-response across cancer cell line panel;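 note: after 72 h compound incubation with CellTiter-Glo ATP readout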
Type: cell-based, human
Condition set: Homo sapiens, BC-3C cells
Protocol: Next, we explored the effect of CSN5 inhibition on the viability of cancer cells. […] A standardized CellTiter-Glo Assay (Promega #G7570) based on the quantification of ATP was applied according to the manufacturer's protocol to measure the amount of viable cells in culture. […] EC50 values were calculated from the plot of percentage of inhibition versus inhibitor concentration using the nonlinear regression analysis software Origin 7.5SR6 (OriginLab Corp.).
Quantity kind: pEC50
Friendly reminder that pEC50 comes from taking -log10 of the concentration in mol/L.

Query :: Test system panel of cancer cell lines; read-out pEC50; what value for COCc1ccccc1NCc1ccc([C@@H]2[C@H](O)CCCc3cncn32)c(-c2ccccc2Cl)c1 ?
Result :: 5.09

====

Tested on: panel of cancer cell lines
Test method notes: Cell viability (CellTiter-Glo) dose-response across cancer cell line panel;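 note: after 72 h compound incubation with CellTiter-Glo ATP readout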
Format: cell-based, human
Condition set: Homo sapiens, Daoy
pEC50: −log10 of the molar value.
Quantity kind: pEC50

[a] CC(C)C[C@H](NC(=O)[C@H](Cc1ccccc1)NC(=O)c1cnccn1)B(O)O
[b] NS(=O)(=O)OC[C@@H]1C[C@@H](n2ccc3c(N[C@H]4CCc5ccccc54)ncnc32)C[C@@H]1O
[c] COCc1ccccc1NCc1ccc([C@H]2[C@@H](O)CCCc3cncn32)c(-c2ccccc2Cl)c1
Query :: Put the listed items above in order, lowest pEC50 first. Respond with the label ranking, as requested.
Result :: c, b, a

Sourced from paper PMC5078989
